B1: H2-Kb / G6 (parent)
chain 1: AQSVTQPDARVTVSEGASLQLRCKYSYFGTPYLFWYVQYPRQGLQLLLKYYPGDPVVQGVNGFEAEFSKSNSSFHLRKASVHWSDWAVYFCAVTPGGSNAKLTFGKGTKLSVKS
chain 2: NSGVVQSPRYIIKGKGERSILKCIPISGHLSVAWYQQTQGQELKFFIQHYDKMERDKGNLPSRFSVQQFDDYHSEMNMSALELEDSAVYFCASSRQGGDNNQAPLFGEGTRLSVL
chain 3: not shown
chain 4: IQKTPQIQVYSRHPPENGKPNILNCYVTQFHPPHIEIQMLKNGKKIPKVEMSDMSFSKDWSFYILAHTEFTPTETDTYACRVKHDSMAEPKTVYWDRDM
chain 5: SIINFEKL

- Variants of: B1
- experimental protocol: % of reporter cells activated (NFAT-GFP), raw; also: test concentration or dose not given here
- condition: with G6; scale: % of reporter cells activated
Some variants, each annotated with its measured ratio to parent.
API note: the answer field is a bare number with no unit suffix.

Sample answers from the record:
The variant listed as chain 5 E6Y shows ratio to parent equal to 0.778

The variant listed as chain 5 I3A shows ratio to parent equal to 0.333

The variant listed as chain 5 E6D shows ratio to parent equal to 2.75

The variant listed as chain 5 S1D shows ratio to parent equal to 0.395

Next:
The variant listed as chain 5 N4G shows ratio to parent equal to 0.239

The variant listed as chain 5 F5K shows ratio to parent equal to 0.284

The variant listed as chain 5 N4C shows ratio to parent equal to 0.177

The variant listed as chain 5 F5H shows ratio to parent equal to 0.395
